Tested system: T1, mFz: Fz domain and C-terminal flanking sequence of mouse MuSK (D307 to T494) with C-terminal Avi- and … (mouse, UniProt Q61006 307-494, limits assumed, biotinylated in vitro using the BirA enzyme)
T1 construct: also called mouse Fz; not shown: Avi- and His6-tags
T1 sequence (looked up): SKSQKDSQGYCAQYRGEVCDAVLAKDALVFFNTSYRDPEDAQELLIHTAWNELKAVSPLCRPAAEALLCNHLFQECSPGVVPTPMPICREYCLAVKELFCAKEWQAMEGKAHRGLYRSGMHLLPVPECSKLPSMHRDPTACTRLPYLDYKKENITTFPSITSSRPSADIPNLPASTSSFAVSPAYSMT
Experiment description: bead-binding assay, Fab format: biotinylated antigen on streptavidin beads, flow cytometry, 1:1 fit; average ± s.d., n=3
pKd: −log10 of the molar value.
Classification field: enter Condition met for pKd values not below 9, Condition not met for values below it.

These solved cases illustrate the format of a correct answer.
X3 Fab (Fab, V domains shown, Fab format) VH: EVQLVESGGGLVQPGGSLRLSCAASGFTISSSSIHWVRQAPGKGLEWVASISSSSGYTYYADSVKGRFTISADTSKNTAYLQMNSLRAEDTAVYYCARSWYEMWMSGYFGFDYWGQGTLVTVSS VL: DIQMTQSPSSLSASVGDRVTITCRASQSVSSAVAWYQQKPGKAPKLLIYSASSLYSGVPSRFSGSRSGTDFTLTISSLQPEDFATYYCQQSSSSLITFGQGTKVEIK ... Condition met
X6 Fab (Fab, V domains shown, also called Fab Clone X6) VH: EVQLVESGGGLVQPGGSLRLSCAASGFTFSSSSIHWVRQAPGKGLEWVASISSYSGYTYYADSVKGRFTISADTSKNTAYLQMNSLRAEDTAVYYCARTYGSYYVSSYTGMDYWGQGTLVTVSS VL: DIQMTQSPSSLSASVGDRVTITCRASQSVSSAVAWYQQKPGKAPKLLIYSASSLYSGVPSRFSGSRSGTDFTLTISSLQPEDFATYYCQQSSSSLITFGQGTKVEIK ... Condition met
X7 Fab (Fab, V domains shown, also called Fab Clone X7) VH: EVQLVESGGGLVQPGGSLRLSCAASGFTLYSSSIHWVRQAPGKGLEWVASISSSYSSTYYADSVKGRFTISADTSKNTAYLQMNSLRAEDTAVYYCARLAGLYHYPGYLGLDYWGQGTLVTVSS VL: DIQMTQSPSSLSASVGDRVTITCRASQSVSSAVAWYQQKPGKAPKLLIYSASSLYSGVPSRFSGSRSGTDFTLTISSLQPEDFATYYCQQSSRSSLLTFGQGTKVEIK ... Condition not met

Input line: Item X8 Fab (Fab, V domains shown, also called Fab Clone X8) VH: EVQLVESGGGLVQPGGSLRLSCAASGFTVSSSSIHWVRQAPGKGLEWVASISSSSGSTSYADSVKGRFTISADTSKNTAYLQMNSLRAEDTAVYYCARSWSYHPWYYHVGWYTGLDYWGQGTLVTVSS VL: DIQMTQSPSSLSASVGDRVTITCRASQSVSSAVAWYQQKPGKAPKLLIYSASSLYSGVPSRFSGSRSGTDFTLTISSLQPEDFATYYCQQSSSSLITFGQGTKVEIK with pKd of 9 or above?
Output line: Condition not met

Input line: Next binder: X2 Fab (Fab, V domains shown, Fab format) VH: EVQLVESGGGLVQPGGSLRLSCAASGFTVSSSSIHWVRQAPGKGLEWVASISSSYGSTSYADSVKGRFTISADTSKNTAYLQMNSLRAEDTAVYYCARSEGDRYVSGYMGMDYWGQGTLVTVSS VL: DIQMTQSPSSLSASVGDRVTITCRASQSVSSAVAWYQQKPGKAPKLLIYSASSLYSGVPSRFSGSRSGTDFTLTISSLQPEDFATYYCQQSGVWLITFGQGTKVEIK
Output line: Condition met
